# test_summary: Selectivity index, ratio of CC50 for cytotoxicity against African green monkey Vero cells to IC50 for antiviral activity against HSV-2 333 infected in African green monkey Vero cells
# Type: toxicity, cell-based
# run_parameters: read-out: Ratio CC50/IC50
readout_kind: selectivity ratio

Task: Dear colleague, please send me the reported selectivity ratio for "CC1=C[C@H](c2c(O)cc(/C=C/c3ccc(O)cc3O)cc2O)[C@@H](C(=O)c2ccc(O)cc2O)[C@H](c2ccc(O)cc2O)C1" when you can.
Output: 32

* * *

# test_summary: Cytotoxicity against HEK293T cells
# Format: toxicity, cell-based, HEK-293T
# run_parameters: human, read-out: TC50 (the source's name)
compounds and their reported CC50
State just the number; it will be interpreted in µM.

{"columns": ["chemical_string", "CC50 [µM]"],
 "data": [
  ["Oc1ccc(-c2c(-c3cc(O)cc(O)c3)oc3ccccc23)cc1", 84.8],
  ["Oc1ccc(-c2sc3ccccc3c2-c2cc(O)cc(O)c2)cc1", 118],
  ["Oc1ccc(-c2c(-c3cc(O)cc(O)c3)sc3ccccc23)cc1", 131],
  ["Oc1ccc(-c2oc3ccccc3c2-c2cc(O)cc(O)c2)cc1", 108]
]}

Now let's try a different one.
Task: Dear colleague, please send me the reported CC50 for "Oc1ccc(-c2ccc(-c3cc(O)cc(O)c3)cc2)cc1" when you can.
Output: 179

* * *

# System: Hepatitis C virus
# test_summary: Antiviral activity against Hepatitis C virus genotype 2 Rluc-J6/JFH1 infected in human Huh7.5 cells assessed as reduction in viral replication treated for 72 hrs by qRT-PCR analysis
# Type: functional, organism-based, Hepacivirus hominis
# run_parameters: genotype 2 Rluc-J6/JFH1, Huh7.5, 72 h
readout_kind: EC50 (nM)
State just the number; it will be interpreted in nM.

Task: Dear colleague, please send me the reported EC50 for Oc1ccc(C2Oc3ccc(/C=C/c4cc(O)cc5c4C(c4cc(O)cc(O)c4)C(c4ccc(O)cc4)O5)cc3C2c2cc(O)cc3c2C(c2cc(O)cc(O)c2)C(c2ccc(O)cc2)O3)cc1 (stereo unspecified) when you can.
Output: 3

* * *

# test_summary: Cytotoxicity against human MT4 cells expressing eGFP under control of HIV-1 LTR promoter sequence
# Format: toxicity, cell-based
molecules and their reported CC50

Consider the reported CC50 for these molecules:
{"columns": ["chemical_string", "result"],
 "data": [
  ["CCOc1ccc(/N=N/c2ccc(/C=C/c3ccc(/N=N/c4ccc(OCC)cc4)cc3S(=O)(=O)O)c(S(=O)(=O)O)c2)cc1", "> 100 µM"],
  ["Nc1ccc(/N=N/c2ccc(/C=C/c3ccc(/N=N/c4ccc(N)c5ccc(S(=O)(=O)O)cc45)cc3S(=O)(=O)O)c(S(=O)(=O)O)c2)c2ccc(S(=O)(=O)O)cc12", "> 100 µM"]
]}

Now let's try a different one.
Task: Dear colleague, please send me the reported CC50 for "O=S(=O)(O)c1cc(/N=N/c2cc(S(=O)(=O)O)c3ccccc3c2O)ccc1/C=C/c1ccc(/N=N/c2cc(S(=O)(=O)O)c3ccccc3c2O)cc1S(=O)(=O)O" when you can.
Output: 59 µM

* * *

# test_summary: Inhibition of HIV-1 integrase catalysed 3' processing activity by densitometric analysis
# Set-up: species or system Human immunodeficiency virus 1
readout_kind: pIC50
In textbook form, pIC50 equals minus log to base ten of the concentration in mol/L.

Consider the reported pIC50 for these compounds:
{"columns": ["chemical_string", "recorded_number"],
 "data": [
  ["O=S(=O)(O)c1cc(/N=N/c2cc(S(=O)(=O)O)c3ccccc3c2O)ccc1/C=C/c1ccc(/N=N/c2cc(S(=O)(=O)O)c3ccccc3c2O)cc1S(=O)(=O)O", 6.49],
  ["Nc1ccc(/N=N/c2ccc(/C=C/c3ccc(/N=N/c4ccc(N)c5ccc(S(=O)(=O)O)cc45)cc3S(=O)(=O)O)c(S(=O)(=O)O)c2)c2ccc(S(=O)(=O)O)cc12", 5.49]
]}

Now let's try a different one.
Task: Dear colleague, please send me the reported pIC50 for "CCOc1ccc(/N=N/c2ccc(/C=C/c3ccc(/N=N/c4ccc(OCC)cc4)cc3S(=O)(=O)O)c(S(=O)(=O)O)c2)cc1" when you can.
Output: 5.96

Hey, just so you know, these numbers are from ChEMBL document CHEMBL5233255.
